# test_system: intracellular phosphorylation of EGFR in NCI-H1975 cell line that harbors the EGFR L858R T790M mutations (Homo sapiens, UniProt P00533, L858R/T790M)
# Construct: NCI-H1975 cell line that harbors the EGFR L858R T790M mutations (ATCC, CRL-5908); host or cells: NCI-H1975
# Sequence (P00533 25-1210 T790M/L858R): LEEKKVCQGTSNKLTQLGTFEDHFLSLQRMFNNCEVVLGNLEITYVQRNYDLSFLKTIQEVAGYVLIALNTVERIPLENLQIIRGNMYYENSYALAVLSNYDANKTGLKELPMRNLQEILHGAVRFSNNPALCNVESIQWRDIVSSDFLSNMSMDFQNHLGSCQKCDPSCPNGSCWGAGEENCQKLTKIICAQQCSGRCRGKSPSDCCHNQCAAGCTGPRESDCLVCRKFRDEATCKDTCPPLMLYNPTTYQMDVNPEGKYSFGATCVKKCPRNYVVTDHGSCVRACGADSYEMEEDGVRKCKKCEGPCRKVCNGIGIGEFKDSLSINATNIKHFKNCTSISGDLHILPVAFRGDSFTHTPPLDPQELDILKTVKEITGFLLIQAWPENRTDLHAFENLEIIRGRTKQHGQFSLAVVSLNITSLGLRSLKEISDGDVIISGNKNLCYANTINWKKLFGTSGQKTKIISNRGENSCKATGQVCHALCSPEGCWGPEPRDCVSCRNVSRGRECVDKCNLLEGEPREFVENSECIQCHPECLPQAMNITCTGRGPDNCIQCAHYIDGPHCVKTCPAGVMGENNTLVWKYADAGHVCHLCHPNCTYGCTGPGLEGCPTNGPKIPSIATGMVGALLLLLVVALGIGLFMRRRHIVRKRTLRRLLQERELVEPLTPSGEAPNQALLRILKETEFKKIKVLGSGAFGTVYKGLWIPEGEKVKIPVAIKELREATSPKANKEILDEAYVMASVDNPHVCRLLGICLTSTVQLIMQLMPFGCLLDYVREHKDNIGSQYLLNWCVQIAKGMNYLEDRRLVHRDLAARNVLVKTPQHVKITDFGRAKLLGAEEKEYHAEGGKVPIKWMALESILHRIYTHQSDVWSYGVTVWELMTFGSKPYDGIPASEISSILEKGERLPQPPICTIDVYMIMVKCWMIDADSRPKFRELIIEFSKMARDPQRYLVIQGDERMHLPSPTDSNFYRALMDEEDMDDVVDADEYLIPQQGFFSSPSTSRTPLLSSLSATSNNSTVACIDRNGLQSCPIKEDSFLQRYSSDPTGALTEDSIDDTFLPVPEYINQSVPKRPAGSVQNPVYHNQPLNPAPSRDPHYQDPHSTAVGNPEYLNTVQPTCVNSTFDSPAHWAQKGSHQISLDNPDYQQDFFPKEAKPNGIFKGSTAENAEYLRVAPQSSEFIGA
# protocol: NCI-H1975 pEGFR AlphaLISA assay
# Format: cell-based
# assay_context: NCI-H1975 cells (EGFR L858R T790M), p-EGFR (Tyr1068), 4-5 hours incubation; read-out: Ext pEGFR H1975 GMean IC50 (nM) Protocol: @Pharmaron AlphaLISA (Num)
Measured IC50, listed per entry for reference.

{"columns": ["compound", "IC50"],
 "data": [
  ["CC(C)c1cnc(N2C[C@H](O)[C@H]2C)c2cnc(Nc3ccnc(N4CC[C@](C)(O)[C@](C)(F)C4)n3)cc12 (single isomer, unassigned)", "20 to 30 nM"],
  ["C[C@H](CC#N)c1cnc(N2CC[C@H]2C)c2cnc(Nc3ccnc(N4CC[C@@H](O)[C@@](C)(F)C4)n3)cc12 (single isomer, unassigned) [Example 37]", "10 to 20 nM"],
  ["CC(C)c1ccc(N2CC(c3nnco3)C2)c2cnc(Nc3ccnc(N4CC[C@@H](O)[C@@](C)(F)C4)n3)cc12", "< 10 nM"],
  ["CC(C)c1cnc(N2CC(C#N)(CO)C2)c2cnc(Nc3ccnc(N4CC[C@@H](O)[C@@](C)(F)C4)n3)cc12", "> 50 nM"],
  ["CC(C)c1cnc(N2CC[C@@H]2C)c2cnc(Nc3ccnc(N4CC[C@H](O)[C@H](F)C4)n3)cc12 (single isomer, unassigned)", "10 to 20 nM"],
  ["CC(C)c1cnc(N2Cc3cnn(C)c3C2)c2cnc(Nc3ccnc(N4CC[C@@H](O)[C@@](C)(F)C4)n3)cc12", "30 to 50 nM"],
  ["CC(C)c1cnc(N2CC[C@]3(C2)CC3(F)F)c2cnc(Nc3ccnc(N4CC[C@@H](O)[C@@](C)(F)C4)n3)cc12 (single isomer, unassigned) [Example 213]", "10 to 20 nM"],
  ["CNC(=O)C1(F)CN(c2ncc(C(C)C)c3cc(Nc4ccnc(N5CC[C@@H](O)[C@@](C)(F)C5)n4)ncc23)C1", "30 to 50 nM"],
  ["CC(C)c1cnc(-c2cnn(C(F)F)c2)c2cnc(Nc3ccnc(N4CC[C@@H](O)[C@@](C)(F)C4)n3)cc12", "> 50 nM"],
  ["COC[C@@H](C)c1cnc(N2CC[C@H]2C)c2cnc(Nc3ccnc(N4CC[C@@H](O)[C@@](C)(F)C4)n3)cc12 (single isomer, unassigned) [Example 216]", "20 to 30 nM"],
  ["CC(C)c1cnc(N2CCC23CN(C)C3)c2cnc(Nc3ccnc(N4CC[C@@]5(CCO5)C(F)(F)C4)n3)cc12 (single isomer, unassigned)", "> 50 nM"],
  ["CC(C)c1cnc(N2CC[C@H](S(C)(=O)=O)C2)c2cnc(Nc3ccnc(N4CC[C@@H](O)[C@@](C)(F)C4)n3)cc12", "10 to 20 nM"]
]}

###

# test_system: intracellular phosphorylation of EGFR in NCI-H1975 cell line that harbors the EGFR L858R T790M mutations (Homo sapiens, UniProt P00533, L858R/T790M)
# Construct: NCI-H1975 cell line that harbors the EGFR L858R T790M mutations (ATCC, CRL-5908); host or cells: NCI-H1975
# protocol: NCI-H1975 pEGFR AlphaLISA assay
# Assay type: cell-based
# assay_context: NCI-H1975 cells (EGFR L858R T790M), p-EGFR (Tyr1068), 4-5 hours incubation; read-out: Ext pEGFR H1975 GMean IC50 (nM) Protocol: @Pharmaron AlphaLISA (Num)

{"columns": ["molecule", "IC50"],
 "data": [
  ["CC(C)c1cnc(N2CC[C@@H](CS(C)(=O)=O)C2)c2cnc(Nc3ccnc(N4CC[C@@H](O)[C@@](C)(F)C4)n3)cc12 (single isomer, unassigned) [Example 207]", "20 to 30 nM"],
  ["CC(C)c1cnc(N2CC(C)(O)C2)c2cnc(Nc3ccnc(N4CC[C@@H](O)[C@@](C)(F)C4)n3)cc12 [Example 50]", "> 50 nM"],
  ["COC[C@@H]1CCN1c1ncc(C(C)C)c2cc(Nc3ccnc(N4CC[C@@H](O)[C@@](C)(F)C4)n3)ncc12 [Example 29]", "< 10 nM"],
  ["CC(C)c1cnc(N2C[C@@H](F)[C@H](F)C2)c2cnc(Nc3ccnc(N4CC[C@@H](O)[C@@](C)(F)C4)n3)cc12 (single isomer, unassigned) [Example 60]", "10 to 20 nM"],
  ["CC(=O)NCC1CCN1c1ncc(C(C)C)c2cc(Nc3ccnc(N4CC[C@@H](O)[C@@](C)(F)C4)n3)ncc12 (stereo partly drawn) [Example 70]", "> 50 nM"],
  ["CCOc1cnc(N2CC[C@@H]2C)c2cnc(Nc3ccnc(N4CC[C@@H](O)[C@@](C)(F)C4)n3)cc12 (single isomer, unassigned) [Example 182]", "> 50 nM"],
  ["CC(C)c1ccc(N2CC[C@H]2CO)c2cnc(Nc3ccnc(N4CC[C@@H](O)[C@@](C)(F)C4)n3)cc12 [Example 105]", "20 to 30 nM"],
  ["CO[C@@H]1CCN(c2nccc(Nc3cc4c(C(C)C)cnc(N5CC(C(=O)N(C)C)C5)c4cn3)n2)C[C@@H]1O (single isomer, unassigned) [Example 120]", "30 to 50 nM"],
  ["CNCCO[C@H]1CCN(c2nccc(Nc3cc4c(C(C)C)cnc(N5CC[C@H]5C)c4cn3)n2)C[C@H]1F [Example 200]", "< 10 nM"],
  ["CO[C@H]1CCN(c2nccc(Nc3cc4c(C(C)C)cnc(N5C[C@H](O)[C@H]5C)c4cn3)n2)C[C@H]1F [Example 149]", "10 to 20 nM"],
  ["CC(C)c1cnc(N2CC[C@]23CCN(C)C3)c2cnc(Nc3ccnc(N4CC[C@@H](O)[C@@](C)(F)C4)n3)cc12 (single isomer, unassigned) [Example 198]", "30 to 50 nM"],
  ["CC(C)c1cnc(-c2cnn(S(C)(=O)=O)c2)c2cnc(Nc3ccnc(N4CC[C@@H](O)[C@@](C)(F)C4)n3)cc12 [Example 18]", "30 to 50 nM"]
]}

###

Listing of entries alongside the reported IC50.
# test_system: EGFR (L858R T790M C797S) (Homo sapiens, UniProt P00533, C797S/L858R/T790M)
# Construct: purchased SignalChem E10-122VG
# Sequence (P00533 25-1210 T790M/C797S/L858R): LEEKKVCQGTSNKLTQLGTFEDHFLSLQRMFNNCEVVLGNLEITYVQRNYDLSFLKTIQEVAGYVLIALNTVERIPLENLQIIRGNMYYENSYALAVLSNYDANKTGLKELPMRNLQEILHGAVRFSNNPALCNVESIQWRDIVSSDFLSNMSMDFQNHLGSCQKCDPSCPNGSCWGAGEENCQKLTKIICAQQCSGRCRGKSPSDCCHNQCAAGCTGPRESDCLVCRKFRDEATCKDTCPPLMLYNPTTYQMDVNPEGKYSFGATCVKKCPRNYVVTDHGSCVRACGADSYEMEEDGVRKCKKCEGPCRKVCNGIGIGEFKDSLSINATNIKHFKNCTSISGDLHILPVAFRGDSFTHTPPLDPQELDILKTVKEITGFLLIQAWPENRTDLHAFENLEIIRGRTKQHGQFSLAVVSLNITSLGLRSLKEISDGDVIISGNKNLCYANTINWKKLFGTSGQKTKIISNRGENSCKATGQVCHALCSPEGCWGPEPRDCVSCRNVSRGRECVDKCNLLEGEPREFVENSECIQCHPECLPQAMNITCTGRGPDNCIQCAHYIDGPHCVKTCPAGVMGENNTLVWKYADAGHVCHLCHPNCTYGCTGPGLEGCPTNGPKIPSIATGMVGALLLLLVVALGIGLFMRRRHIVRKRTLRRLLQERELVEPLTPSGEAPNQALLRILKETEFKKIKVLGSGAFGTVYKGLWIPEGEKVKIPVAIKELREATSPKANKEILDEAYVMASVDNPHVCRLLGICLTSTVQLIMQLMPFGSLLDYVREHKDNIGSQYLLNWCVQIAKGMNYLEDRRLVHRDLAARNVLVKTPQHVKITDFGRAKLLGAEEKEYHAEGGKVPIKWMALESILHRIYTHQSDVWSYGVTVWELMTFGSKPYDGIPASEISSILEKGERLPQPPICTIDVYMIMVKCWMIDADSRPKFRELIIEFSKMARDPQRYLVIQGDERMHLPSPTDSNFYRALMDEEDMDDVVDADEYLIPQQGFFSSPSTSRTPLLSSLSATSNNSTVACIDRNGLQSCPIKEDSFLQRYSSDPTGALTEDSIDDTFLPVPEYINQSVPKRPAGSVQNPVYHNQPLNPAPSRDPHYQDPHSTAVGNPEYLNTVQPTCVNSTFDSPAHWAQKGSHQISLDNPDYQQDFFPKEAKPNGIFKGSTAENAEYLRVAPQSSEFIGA
# protocol: Biochemical EGFR inhibition assay (Caliper mobility shift), EGFR LRTMCS
# assay_context: LRTMCS (PH) IC50 (nM) @ 1 mM ATP (Num), EGFR LRTMCS mutant

{"columns": ["compound", "IC50"],
 "data": [
  ["CC(C)c1cnc(-c2cnn(C3CN(C)C3)c2)c2cnc(Nc3ccnc(N4CC[C@@H](O)[C@@](C)(F)C4)n3)cc12 [Example 22]", "15 to 20 nM"],
  ["CO[C@@H]1CCN(c2nccc(Nc3cc4c(C(C)C)cnc(N5CCC56CN(C)C6)c4cn3)n2)C[C@@H]1F [Example 41]", "< 15 nM"],
  ["[2H]C([2H])([2H])O[C@H]1CCN(c2nccc(Nc3cc4c(C(C)C)cnc(N5C[C@H](O)[C@H]5C)c4cn3)n2)C[C@H]1F [Example 138]", "< 15 nM"],
  ["Cc1nc(-c2ncc(C(C)C)c3cc(Nc4ccnc(N5CC[C@@H](O)[C@@](C)(F)C5)n4)ncc23)n[nH]1 [Example 24]", "< 15 nM"],
  ["CO[C@@H]1CCN(c2nccc(Nc3cc4c(C(C)C)cnc(N5CC(C(=O)N(C)C)C5)c4cn3)n2)C[C@@H]1O (single isomer, unassigned) [Example 120]", "20 to 30 nM"],
  ["[2H]C([2H])([2H])O[C@H]1CCN(c2nccc(Nc3cc4c(C(C)C)cnc(N5C[C@H](OCCO)[C@H]5C)c4cn3)n2)C[C@H]1F [Example 137]", "< 15 nM"],
  ["CC(C)c1cnc(N2CC[C@H]2C)c2cnc(Nc3ccnc(N4CC[C@H](OCCN(C)C)[C@H](F)C4)n3)cc12 [Example 202]", "30 to 100 nM"],
  ["CC(C)c1cnc(-c2nc[nH]n2)c2cnc(Nc3ccnc(N4CC[C@@H](O)[C@@](C)(F)C4)n3)cc12 [Example 25]", "15 to 20 nM"],
  ["CC(C)c1cnc(N2CC[C@@H]2C)c2cnc(Nc3ccnc(N4CC[C@@H](O)[C@@H](F)C4)n3)cc12 (single isomer, unassigned) [Example 159]", "< 15 nM"],
  ["CC(C)c1cnc(N2CC3(CCN(C)C3=O)C2)c2cnc(Nc3ccnc(N4CC[C@@H](O)[C@@](C)(F)C4)n3)cc12 [Example 99]", "30 to 100 nM"],
  ["CC(C)c1cnc(N2CC[C@H]2CF)c2cnc(Nc3ccnc(N4CC[C@@H](O)[C@@](C)(F)C4)n3)cc12 [Example 76]", "< 15 nM"],
  ["CC(C)c1nnc(N2CC[C@@H]2C)c2cnc(Nc3ccnc(N4CC[C@@H](O)[C@@](C)(F)C4)n3)cc12 (single isomer, unassigned) [Example 206]", "< 15 nM"],
  ["CC(C)c1ccc(N2CC3(CCS3(=O)=O)C2)c2cnc(Nc3ccnc(N4CC[C@@H](O)[C@@](C)(F)C4)n3)cc12 [Example 35]", "< 15 nM"],
  ["CC(C)c1cnc(N2C[C@@H](F)[C@@H]2C)c2cnc(Nc3ccnc(N4CC[C@@H](O)[C@@](C)(F)C4)n3)cc12 (single isomer, unassigned) [Example 34]", "< 15 nM"],
  ["CO[C@H]1CCN(c2nccc(Nc3cc4c(C(C)C)cnc(N5C[C@H](O)[C@H]5C)c4cn3)n2)C[C@H]1F [Example 149]", "< 15 nM"],
  ["Cc1nnc(C2CN(c3ccc(C(C)C)c4cc(Nc5ccnc(N6CC[C@@H](O)[C@@](C)(F)C6)n5)ncc34)C2)o1 [Example 104]", "< 15 nM"],
  ["CC(C)c1cnc(N2C[C@H](O)[C@H]2C)c2cnc(Nc3ccnc(N4C[C@H](F)[C@H](O)[C@@](C)(F)C4)n3)cc12 (single isomer, unassigned) [Example 135]", "20 to 30 nM"],
  ["CC(C)c1ncc(-c2ccn(C)n2)c2cnc(Nc3ccnc(N4CC[C@@H](O)[C@@](C)(F)C4)n3)cc12 [Example 11]", "20 to 30 nM"],
  ["CC(C)c1cnc(N2C[C@H](n3ccnn3)[C@H]2C)c2cnc(Nc3ccnc(N4CC[C@@](C)(O)[C@@H](F)C4)n3)cc12 [Example 144]", "15 to 20 nM"],
  ["CC(C)c1cnc(N2CC(C)(O)C2)c2cnc(Nc3ccnc(N4CC[C@@H](O)[C@@](C)(F)C4)n3)cc12 [Example 50]", "20 to 30 nM"],
  ["C[C@@H]1CCN1c1ncc([C@@H](C)C(=O)N(C)C)c2cc(Nc3ccnc(N4CC[C@@H](O)[C@@](C)(F)C4)n3)ncc12 (single isomer, unassigned) [Example 185]", "20 to 30 nM"],
  ["CC(C)c1cnc(N2CCCC2)c2cnc(Nc3ccnc(N4CC[C@@H](O)[C@@](C)(F)C4)n3)cc12 [Example 45]", "20 to 30 nM"],
  ["CC(C)c1cnc(N2C[C@H](O)[C@H]2C)c2cnc(Nc3ccnc(N4CC[C@@H](O)C(C)(C)C4)n3)cc12 (single isomer, unassigned) [Example 168]", "< 15 nM"],
  ["CCOc1cnc(N2CC[C@@H]2C)c2cnc(Nc3ccnc(N4CC[C@@H](O)[C@@](C)(F)C4)n3)cc12 (single isomer, unassigned) [Example 182]", "30 to 100 nM"],
  ["CC(C)c1cnc(N2CC(CP(C)(C)=O)C2)c2cnc(Nc3ccnc(N4CC[C@@H](O)[C@@](C)(F)C4)n3)cc12 [Example 79]", "30 to 100 nM"]
]}
